Molecular target: 5-hydroxytryptamine receptor 2B (Homo sapiens) (UniProt P41595)
Sequence (P41595 whole entry): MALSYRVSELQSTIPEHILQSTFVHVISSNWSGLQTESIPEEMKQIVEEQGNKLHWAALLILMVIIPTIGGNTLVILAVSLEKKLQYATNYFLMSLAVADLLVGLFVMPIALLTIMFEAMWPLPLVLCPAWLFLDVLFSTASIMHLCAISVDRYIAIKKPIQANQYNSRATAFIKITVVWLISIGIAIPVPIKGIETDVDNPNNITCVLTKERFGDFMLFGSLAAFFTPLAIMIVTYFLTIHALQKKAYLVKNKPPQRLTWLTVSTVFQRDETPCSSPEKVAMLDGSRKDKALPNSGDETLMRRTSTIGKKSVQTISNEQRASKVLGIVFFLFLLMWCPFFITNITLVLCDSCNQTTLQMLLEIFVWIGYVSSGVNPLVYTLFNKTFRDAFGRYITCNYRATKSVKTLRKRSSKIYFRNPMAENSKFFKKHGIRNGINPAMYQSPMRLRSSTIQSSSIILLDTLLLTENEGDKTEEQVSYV
Assay: Binding affinity to human recombinant 5-HT2B receptor expressed in CHO cells at 1 uM by radioligand displacement assay relative to control
Type: cell-based
Measured inhibition of individual entries
The answer is to be given in %; state only the numeric part.

Form: molecule = CN(C(=O)CCCCCN1CCN(c2cccc3ccccc23)CC1)c1cccc(O)c1 ; inhibition = 101

Form: molecule = CN(CCCN1CCN(c2ccccc2)CC1)c1cccc(O)c1 ; inhibition = 75

Form: molecule = Oc1ccc2[nH]cc(CCN3CCN(c4ccccc4)CC3)c2c1 ; inhibition = 98

Note: attention shifts to another entry.
Form: molecule = Oc1ccc2[nH]cc(CCN3CCN(c4cccc5ccccc45)CC3)c2c1 ; inhibition = 98
